Recorded CC50 values for a group of molecules are listed next.
- Test system: CEM cells
- Assay info: Toxicity to mock-infected CEM cells (CC50)
- Format: cell-based
- Test parameters: Table III; toxicity to CEM cells; read-out: CC50 CEN
Structures can show the parent of a compound that is named as a salt.
Test readout: CC50 (µM)

{"columns": ["Molecule", "Tested system", "Test readout", "Value units", "Recorded measurement"],
 "data": [
  ["C[C@@H](NP(=O)(O)OC[C@@H]1C=C[C@H](n2cnc3c(NC4CC4)nc(N)nc32)C1)C(=O)O [Compound 1595, diammonium salt]", "CEM cells", "CC50", "µM", 213],
  ["CC(C)CCOC(=O)C(C)NP(=O)(OC[C@@H]1C=C[C@H](n2cnc3c(NC4CC4)nc(N)nc32)C1)Oc1ccccc1 (stereo partly drawn)", "CEM cells", "CC50", "µM", 10.7],
  ["CCOC(=O)C[C@H](NP(=O)(OC[C@@H]1C=C[C@H](n2cnc3c(NC4CC4)nc(N)nc32)C1)Oc1ccccc1)C(=O)OCC (stereo partly drawn)", "CEM cells", "CC50", "µM", 23.1],
  ["COC(=O)[C@H](CCSC)NP(=O)(OC[C@@H]1C=C[C@H](n2cnc3c(NC4CC4)nc(N)nc32)C1)Oc1ccccc1 (stereo partly drawn)", "CEM cells", "CC50", "µM", 48.9],
  ["COC(=O)[C@H](C)NP(=O)(OC[C@@H]1C=C[C@H](n2cnc3c(NC4CC4)nc(N)nc32)C1)Oc1ccc(Br)cc1 (stereo partly drawn)", "CEM cells", "CC50", "µM", 5.78],
  ["C[C@H](NP(=O)(OC[C@@H]1C=C[C@H](n2cnc3c(NC4CC4)nc(N)nc32)C1)Oc1ccccc1)C(=O)OC(C)(C)C (stereo partly drawn)", "CEM cells", "CC50", "µM", 33]
]}

----------
- Test system: CEM cells
- Assay info: Toxicity to mock-infected CEM cells (CC50)
- Format: cell-based
- Test parameters: Table III; toxicity to CEM cells; read-out: CC50 CEN

{"columns": ["Molecule", "Value units", "Comparative sign", "CC50"],
 "data": [
  ["CCOC(=O)[C@H](C)NP(=O)(OC[C@@H]1C=C[C@H](n2cnc3c(NC4CC4)nc(N)nc32)C1)Oc1ccccc1 (stereo partly drawn)", "µM", "=", 12.1],
  ["CC[C@H](C)[C@H](NP(=O)(OC[C@@H]1C=C[C@H](n2cnc3c(NC4CC4)nc(N)nc32)C1)Oc1ccccc1)C(=O)OC (stereo partly drawn)", "µM", "=", 24.2],
  ["COC(=O)CNP(=O)(OC[C@@H]1C=C[C@H](n2cnc3c(NC4CC4)nc(N)nc32)C1)Oc1ccccc1 (stereo partly drawn)", "µM", "≥", 100]
]}

----------
- Tested on: CEM cells
- Assay info: Toxicity to mock-infected CEM cells (CC50)
- Format: cell-based

{"columns": ["Compound", "Value units", "CC50"],
 "data": [
  ["COC(=O)[C@H](C)NP(=O)(OC[C@@H]1C=C[C@H](n2cnc3c(NC4CC4)nc(N)nc32)C1)Oc1ccccc1 (stereo partly shown) [Compound 1490]", "µM", 13.1]
]}

----------
- Tested on: MSV
- Assay info: Minimum cytotoxic concentration in MSV assay
- Format: cell-based
- Design: unit not given here
- Test parameters: Table III

{"columns": ["Compound", "MCCMSV"],
 "data": [
  ["CCCCOC(=O)[C@H](C)NP(=O)(OC[C@@H]1C=C[C@H](n2cnc3c(NC4CC4)nc(N)nc32)C1)Oc1ccccc1 (stereo partly drawn)", ">4"],
  ["CC(C)CCOC(=O)C(C)NP(=O)(OC[C@@H]1C=C[C@H](n2cnc3c(NC4CC4)nc(N)nc32)C1)Oc1ccccc1 (stereo partly drawn)", ">4"],
  ["C[C@H](NP(=O)(OC[C@@H]1C=C[C@H](n2cnc3c(NC4CC4)nc(N)nc32)C1)Oc1ccccc1)C(=O)OC1CCCCC1 (stereo partly drawn)", ">4"],
  ["CCOC(=O)C[C@H](NP(=O)(OC[C@@H]1C=C[C@H](n2cnc3c(NC4CC4)nc(N)nc32)C1)Oc1ccccc1)C(=O)OCC (stereo partly drawn)", ">20"],
  ["COC(=O)[C@H](C)NP(=O)(OC[C@@H]1C=C[C@H](n2cnc3c(NC4CC4)nc(N)nc32)C1)Oc1ccccc1 (stereo partly drawn)", ">4"],
  ["COC(=O)C(NP(=O)(OC[C@@H]1C=CC(n2cnc3c(NC4CC4)nc(N)nc32)C1)Oc1ccccc1)C(C)C (stereo partly drawn)", ">20"],
  ["CC(C)CCCOC(=O)[C@H](C)NP(=O)(OC[C@@H]1C=CC(n2cnc3c(NC4CC4)nc(N)nc32)C1)Oc1ccccc1 (stereo partly drawn)", ">4"],
  ["C[C@H](NP(=O)(OC[C@@H]1C=CC(n2cnc3c(NC4CC4)nc(N)nc32)C1)Oc1ccccc1)C(=O)OCCC(C)(C)C (stereo partly drawn)", ">4"],
  ["C[C@H](NP(=O)(OC[C@@H]1C=C[C@H](n2cnc3c(NC4CC4)nc(N)nc32)C1)Oc1ccccc1)C(=O)OC(C)(C)C (stereo partly drawn)", ">20"],
  ["CCCOC(=O)[C@H](C)NP(=O)(OC[C@@H]1C=C[C@H](n2cnc3c(NC4CC4)nc(N)nc32)C1)Oc1ccccc1 (stereo partly drawn)", ">4"],
  ["CC(C)OC(=O)[C@H](C)NP(=O)(OC[C@@H]1C=C[C@H](n2cnc3c(NC4CC4)nc(N)nc32)C1)Oc1ccccc1 (stereo partly drawn)", "≧20"],
  ["CCCCCOC(=O)[C@H](C)NP(=O)(OC[C@@H]1C=C[C@H](n2cnc3c(NC4CC4)nc(N)nc32)C1)Oc1ccccc1 (stereo partly drawn)", ">4"],
  ["COC(=O)C(CC(C)C)NP(=O)(OC[C@@H]1C=CC(n2cnc3c(NC4CC4)nc(N)nc32)C1)Oc1ccccc1 (stereo partly drawn)", ">20"],
  ["COC(=O)[C@@H]1CCCN1P(=O)(OC[C@@H]1C=CC(n2cnc3c(NC4CC4)nc(N)nc32)C1)Oc1ccccc1 (stereo partly drawn)", "≧100"],
  ["COC(=O)[C@H](CC1CCCCC1)NP(=O)(OC[C@@H]1C=C[C@H](n2cnc3c(NC4CC4)nc(N)nc32)C1)Oc1ccccc1 (stereo partly drawn)", ">4"],
  ["CCC(CC)OC(=O)[C@H](C)NP(=O)(OC[C@@H]1C=CC(n2cnc3c(NC4CC4)nc(N)nc32)C1)Oc1ccccc1 (stereo partly drawn)", ">20"],
  ["COC(=O)[C@H](CCSC)NP(=O)(OC[C@@H]1C=C[C@H](n2cnc3c(NC4CC4)nc(N)nc32)C1)Oc1ccccc1 (stereo partly drawn)", ">20"],
  ["CC(C)COC(=O)[C@H](C)NP(=O)(OC[C@@H]1C=C[C@H](n2cnc3c(NC4CC4)nc(N)nc32)C1)Oc1ccccc1 (stereo partly drawn)", ">4"],
  ["C[C@H](NP(=O)(OC[C@@H]1C=C[C@H](n2cnc3c(NC4CC4)nc(N)nc32)C1)Oc1ccccc1)C(=O)OCC(C)(C)C (stereo partly drawn)", ">4"],
  ["COC(=O)[C@H](C)NP(=O)(OC[C@@H]1C=C[C@H](n2cnc3c(NC4CC4)nc(N)nc32)C1)Oc1ccc(Br)cc1 (stereo partly drawn)", ">0.8"],
  ["C[C@H](NP(=O)(OC[C@@H]1C=C[C@H](n2cnc3c(NC4CC4)nc(N)nc32)C1)Oc1ccccc1)C(=O)OCC1CCCCC1 (stereo partly drawn)", ">4"]
]}
